assay procedure: Antiproliferative activity against human LOXIMVI cells assessed as cell growth at 10^-5 M after 48 hrs by sulforhodamine B assay
Format: functional
details: LOX IMVI, read-out: Activity
Given measured growth at 10 µM, output true if it is greater than or equal to 50% and false if not.

These solved cases illustrate the format of a correct answer.
- CNC(=O)c1cc(Oc2ccc3nc(NC(=O)c4cccc(F)n4)sc3c2)ccn1: true
- CNC(=O)c1cc(Oc2ccc3nc(NC(=O)c4ccc5ncccc5c4)sc3c2)ccn1: true
- CNC(=O)c1cc(Oc2ccc3nc(NC(=O)Nc4cc(C(F)(F)F)cc(C(F)(F)F)c4)sc3c2)ccn1: false
- CNC(=O)c1cc(Oc2ccc3nc(NC(=O)Nc4ccc(F)cc4F)sc3c2)ccn1: true
- CNC(=O)c1cc(Oc2ccc3nc(NC(=O)Nc4ccc(Cl)c(Cl)c4)sc3c2)ccn1: false

[Q] Threshold query (growth at 10 µM >= 50%) on "CNC(=O)c1cc(Oc2ccc3nc(NC(=O)c4cc(C(F)(F)F)cc(C(F)(F)F)c4)sc3c2)ccn1"
[A] false

[Q] Threshold query (growth at 10 µM >= 50%) on "CNC(=O)c1cc(Oc2ccc3nc(NC(=O)c4ccc(Cl)c(C(F)(F)F)c4)sc3c2)ccn1"
[A] true

[Q] Threshold query (growth at 10 µM >= 50%) on "CNC(=O)c1cc(Oc2ccc3nc(NC(=O)c4ccc5c(c4)OCCO5)sc3c2)ccn1"
[A] true

[Q] Threshold query (growth at 10 µM >= 50%) on "CNC(=O)c1cc(Oc2ccc3nc(NC(=O)Nc4ccc(C(F)(F)F)cc4)sc3c2)ccn1"
[A] false

[Q] Threshold query (growth at 10 µM >= 50%) on "CNC(=O)c1cc(Oc2ccc3nc(NC(=O)Nc4ccc(Cl)cc4)sc3c2)ccn1"
[A] true
